In this section we review reported IC50 values for a set of molecules.
EXPERIMENTAL TARGET: Fatty acid synthase (Homo sapiens, UniProt P49327)
Sequence (P49327 whole entry): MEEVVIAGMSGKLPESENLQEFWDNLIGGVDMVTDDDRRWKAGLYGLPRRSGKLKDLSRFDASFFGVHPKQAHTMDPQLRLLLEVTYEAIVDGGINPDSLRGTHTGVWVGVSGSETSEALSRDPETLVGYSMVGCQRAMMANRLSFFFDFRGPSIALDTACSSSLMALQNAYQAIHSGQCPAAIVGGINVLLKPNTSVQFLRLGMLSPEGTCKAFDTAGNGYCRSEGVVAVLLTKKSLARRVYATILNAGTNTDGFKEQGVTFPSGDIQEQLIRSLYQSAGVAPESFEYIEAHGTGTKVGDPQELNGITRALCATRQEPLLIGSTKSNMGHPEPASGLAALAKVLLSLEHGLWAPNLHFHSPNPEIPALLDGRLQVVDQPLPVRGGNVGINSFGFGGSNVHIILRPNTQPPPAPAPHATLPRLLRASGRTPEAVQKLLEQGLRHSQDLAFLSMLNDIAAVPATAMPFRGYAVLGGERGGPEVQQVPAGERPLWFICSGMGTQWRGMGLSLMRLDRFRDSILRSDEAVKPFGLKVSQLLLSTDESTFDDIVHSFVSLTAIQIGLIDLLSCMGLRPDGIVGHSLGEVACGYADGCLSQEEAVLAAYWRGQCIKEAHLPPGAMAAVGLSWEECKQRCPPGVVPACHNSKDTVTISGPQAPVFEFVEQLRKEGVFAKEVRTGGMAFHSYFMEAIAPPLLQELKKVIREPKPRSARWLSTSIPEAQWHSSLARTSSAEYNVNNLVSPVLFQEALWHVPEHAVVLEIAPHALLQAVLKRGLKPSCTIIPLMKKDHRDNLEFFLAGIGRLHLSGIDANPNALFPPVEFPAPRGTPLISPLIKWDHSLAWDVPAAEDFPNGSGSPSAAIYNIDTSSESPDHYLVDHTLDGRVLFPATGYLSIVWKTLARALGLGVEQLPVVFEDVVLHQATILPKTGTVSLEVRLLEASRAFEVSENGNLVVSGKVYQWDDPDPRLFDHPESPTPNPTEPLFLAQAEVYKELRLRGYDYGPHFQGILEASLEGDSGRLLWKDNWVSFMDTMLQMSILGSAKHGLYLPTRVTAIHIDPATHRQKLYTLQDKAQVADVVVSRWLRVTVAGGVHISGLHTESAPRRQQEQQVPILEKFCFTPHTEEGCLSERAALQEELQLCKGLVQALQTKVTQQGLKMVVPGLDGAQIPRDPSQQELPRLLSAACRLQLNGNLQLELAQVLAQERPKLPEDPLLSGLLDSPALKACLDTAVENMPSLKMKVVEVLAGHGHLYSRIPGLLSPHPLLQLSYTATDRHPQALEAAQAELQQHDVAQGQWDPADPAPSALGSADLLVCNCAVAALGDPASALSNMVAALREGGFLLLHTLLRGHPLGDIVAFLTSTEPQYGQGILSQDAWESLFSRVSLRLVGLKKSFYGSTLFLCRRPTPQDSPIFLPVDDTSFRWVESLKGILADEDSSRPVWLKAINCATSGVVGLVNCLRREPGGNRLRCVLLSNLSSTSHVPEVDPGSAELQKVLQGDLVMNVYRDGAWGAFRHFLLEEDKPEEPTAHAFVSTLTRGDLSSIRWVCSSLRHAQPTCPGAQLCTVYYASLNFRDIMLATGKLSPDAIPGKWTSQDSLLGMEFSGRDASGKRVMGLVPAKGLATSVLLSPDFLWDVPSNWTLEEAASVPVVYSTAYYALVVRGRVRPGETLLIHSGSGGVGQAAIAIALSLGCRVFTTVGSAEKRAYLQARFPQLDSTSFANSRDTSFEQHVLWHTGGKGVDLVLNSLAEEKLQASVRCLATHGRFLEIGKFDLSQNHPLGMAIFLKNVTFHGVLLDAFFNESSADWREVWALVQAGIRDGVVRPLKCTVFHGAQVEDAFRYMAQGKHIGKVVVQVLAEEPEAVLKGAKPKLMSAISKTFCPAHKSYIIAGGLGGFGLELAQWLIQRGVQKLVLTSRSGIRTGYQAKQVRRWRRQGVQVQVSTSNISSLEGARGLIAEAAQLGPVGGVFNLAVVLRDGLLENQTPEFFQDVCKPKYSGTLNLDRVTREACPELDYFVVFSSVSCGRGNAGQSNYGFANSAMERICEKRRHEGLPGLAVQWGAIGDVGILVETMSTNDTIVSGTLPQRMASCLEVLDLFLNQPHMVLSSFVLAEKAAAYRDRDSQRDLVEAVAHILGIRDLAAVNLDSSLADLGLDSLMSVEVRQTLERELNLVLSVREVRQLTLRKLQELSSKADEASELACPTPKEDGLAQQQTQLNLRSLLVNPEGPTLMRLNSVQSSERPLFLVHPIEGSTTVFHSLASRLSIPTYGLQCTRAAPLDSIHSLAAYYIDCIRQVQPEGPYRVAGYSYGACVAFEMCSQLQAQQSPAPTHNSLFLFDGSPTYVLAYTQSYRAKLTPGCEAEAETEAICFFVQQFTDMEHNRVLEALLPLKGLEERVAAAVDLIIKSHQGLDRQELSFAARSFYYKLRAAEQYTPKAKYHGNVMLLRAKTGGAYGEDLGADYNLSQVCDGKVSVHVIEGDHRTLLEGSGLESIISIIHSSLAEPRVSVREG
ASSAY OVERVIEW: inhibition of human FAS-TE enzyme activity – biochemical, kinetic fluorescence intensity, dose response (AID 624326);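 also: rate of fluorescence rise from hydrolysis of a fluorogenic O-methyl fluorescein ester substrate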
Assay type: functional
Active and inactive are the calls of the source. Rule as the data show it: active = IC50 of 20 µM or less and inactive = more.
METRIC NAME: IC50

| MOLECULE | METRIC NAME | RESULT |
| --- | --- | --- |
| O=C(COc1ccc2c(-c3ccccc3)cc(=O)oc2c1)N[C@@H](Cc1c[nH]c2ccc(O)cc12)C(=O)O | IC50 | 6.9 µM (active) |
| N#Cc1cc(Oc2ccc(Cl)cc2)c(N2CCOCC2)cc1C#N | IC50 | 4.83 µM (active) |
| O=C(COC(=O)c1cc([N+](=O)[O-])ccc1N1CCOCC1)NCCc1ccccc1 | IC50 | 2.6 µM (active) |
| C[C@@H]1CN([C@H](C)CO)S(=O)(=O)c2ccc(C#Cc3ccccc3F)cc2O[C@@H]1CN(C)C(=O)Cc1ccccc1 | IC50 | 3.79 µM (active) |
| CC(NC(=O)c1cc([N+](=O)[O-])cc([N+](=O)[O-])c1)c1ccc(-n2ccnc2)cc1 (stereo not given) | IC50 | 6.68 µM (active) |

# credit: ChEMBL document CHEMBL1201862
